Study system: T1, human CD4 on cells (SKW3 cells; human PBMCs) (human, UniProt P01730 26-458)
T1 construct: whole, on cells; SKW3 CD4 knockout cells served as the negative cell line in the primary screen; also called hCD4; huCD4
Protocol details: FACS confirmation, supernatant on human PBMCs;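 also: flow cytometry with hybridoma supernatants incubated on human PBMCs for 30 min at 4 °C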
PBMCs CD4+ gate RL1 binding, anti-mFc 647: recorded values
Measured attribute: PBMCs CD4+ gate RL1 binding, anti-mFc 647

Binder	Assay value
75110_08G08A (antibody, V domains shown, Tested as non-clonal AlivaMab Mouse Kappa hybridoma supernatant (detected with anti-mouse Fc gamma and anti-human kappa)) VH: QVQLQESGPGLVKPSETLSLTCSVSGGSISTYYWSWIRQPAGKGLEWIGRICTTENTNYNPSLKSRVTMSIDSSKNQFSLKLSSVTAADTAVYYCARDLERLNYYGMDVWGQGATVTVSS VL: DIQMTQSPSSLSASVGDRVTITCQASQDISNYLNWYQQKPGIAPKLLIYDASNLETGVPSRFSGSGSGTDFTFTISSLQPEDIATYYCQQYDSLPITFGQGTRLEIK	314000
75110_06E14A (antibody, V domains shown, Tested as non-clonal AlivaMab Mouse Kappa hybridoma supernatant (detected with anti-mouse Fc gamma and anti-human kappa)) VH: QVQLQESGPGLVKPSETLSLTCTVSGGSISNYFWSWIRQPAGKGLEWIGRIYSSGNTNYNPSLKSRVTMSVDTSKNQFSLKLSSVTAADTAVYYCARDREDYYYYGMDVWGQGTTVTVSS VL: DIQMTQSPSSLSASVGDRVTITCQASQDISNYLNWYQQKPGKAPKLLIYGASILETGVPSRFTGSGSGTDFTFTISSLQPEDIATYYCQQYDSLPITFGQGTRLEIK	285000
75110_10O16A (antibody, V domains shown, Tested as non-clonal AlivaMab Mouse Kappa hybridoma supernatant (detected with anti-mouse Fc gamma and anti-human kappa); also called 75110_10016A) VH: EVQLVESGGGLVQPGGSLRLSCAASGFTFSNSDMHWVRQATGKGLEWVSTIGTAGDTYYPGSVKGRFTISRENAKNSLYLQMNSLRAGDTAVYYCARGGLYYYGMDVWGQGTTVTVSS VL: ENVLTQSPGTLSLSPGERATLSCRASQSVSSSYLAWYQQKPGQAPRLLIYGASSRATGIPDRFSGSGSGTDFTLTISRLEPEDFAVYYCHQFGSSPFTFGPGTKVDIK	72100
75110_14N19A (antibody, V domains shown, Tested as non-clonal AlivaMab Mouse Kappa hybridoma supernatant (detected with anti-mouse Fc gamma and anti-human kappa)) VH: QVQLQESGPGLVKPSETLSLTCTVSGGSISRYYWSWIRQPAGKGLEWIGRICTSENPNYNPALKSRVTMSVDTSKNQFSLKLSSVTAADTAVYYCARELERLNYYGMDVWGQGTTVTVSS VL: DIQMTQFPSSLSASVGDRVTITCQASQDISNYLNWYQQKPGKAPKLLIYDASNLESGVPSRFSGRGSGTDFTFTISSLQPEDFATFYCQQYDTLPITFGQGTRLEIK	277000
75110_07J02A (antibody, V domains shown, Tested as non-clonal AlivaMab Mouse Kappa hybridoma supernatant (detected with anti-mouse Fc gamma and anti-human kappa)) VH: EVQLVESGGGLVQPGGSLRLSCAASGFTFSSYWMSWVRQAPGKGLEWVANIKEDGSEKYYVDSVKGRFTISRDNAKNSLYLQMNSLRAEDTAVYYCARDGSYSGYGMDVWGQGTTVTVSS VL: AIQMTQSPSSLSASVGDRVTITCRASQGIRNDLGWYQQKPGKAPKLLIYAASSLQSGVPSRFSGRGSGTDFALTISSLQPEDFATYYCLLDYNYPYTFGQGTRLEIK	89200
75110_06C16A (antibody, V domains shown, Tested as non-clonal AlivaMab Mouse Kappa hybridoma supernatant (detected with anti-mouse Fc gamma and anti-human kappa)) VH: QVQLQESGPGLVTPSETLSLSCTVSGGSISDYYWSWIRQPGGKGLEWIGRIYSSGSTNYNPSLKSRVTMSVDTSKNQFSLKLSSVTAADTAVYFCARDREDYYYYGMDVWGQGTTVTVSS VL: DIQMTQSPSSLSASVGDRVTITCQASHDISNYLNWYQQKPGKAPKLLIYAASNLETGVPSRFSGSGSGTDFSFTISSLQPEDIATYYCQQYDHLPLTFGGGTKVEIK	297000
75110_08F20A (antibody, V domains shown, Tested as non-clonal AlivaMab Mouse Kappa hybridoma supernatant (detected with anti-mouse Fc gamma and anti-human kappa)) VH: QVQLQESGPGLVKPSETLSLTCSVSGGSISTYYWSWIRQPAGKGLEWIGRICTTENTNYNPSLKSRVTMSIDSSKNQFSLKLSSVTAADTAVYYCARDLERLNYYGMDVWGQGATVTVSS VL: DIQMTQSPSSLSASVGDRVTITCQASQDISKYLNWYQQKPGIAPKLLIYDASNLETGVPSRFSGSGSGTDFTFTISSLQPEDFATYYCQQYDSLPITFGQGTRLEIK	253000
75110_02N15A (antibody, V domains shown, Tested as non-clonal AlivaMab Mouse Kappa hybridoma supernatant (detected with anti-mouse Fc gamma and anti-human kappa)) VH: EVQLVESGGGLVQPGGSLRLSCAASGFTFSSYWMSWVRQAPGKGLEWVANINEDGNEKYYVDSVKGRFTISRDNAKNSLFLQMNSLRAEDTAVYFCAREGGQWLALDHWGQGALVTVSS VL: DIQMTQSPSSVSASVGDRVTITCRASQGISSWLAWYQQKPGKAPKFLISGASSLQSGVPSRFSGSGSGTDFTLTISSLQPEDFATYYCQQANSFPWTFGQGTKVEFK	250000
75110_08D24A (antibody, V domains shown, Tested as non-clonal AlivaMab Mouse Kappa hybridoma supernatant (detected with anti-mouse Fc gamma and anti-human kappa)) VH: QVQLQESGPGLVKPSETLSLTCTVSGGSISGFYWSWIRQPAGKGLEWIGRIYTSENTNYNPSLKSRVTMSVDTSKNQFSLKLSSVTAADTAVYYCARDREGYYYYGMDVWGQGTTVTVSS VL: DIQMTQSPSSLSASVGDRVTITCQASQDISNYLNWYQQKPGKAPKLLIYAASNLETGVPSRFSGSGSGTDFTFTISSLQPEDIATYYCQQYDSLPITFGQGTRLEIK	278000
75110_06G04A (antibody, V domains shown, Tested as non-clonal AlivaMab Mouse Kappa hybridoma supernatant (detected with anti-mouse Fc gamma and anti-human kappa)) VH: QVQLLESGPGLVKPSETLSLTCTVSGGSISSYYWSWIRQPAGKGLEWIGRIYISGSTNYNPSLKSRVTMSIDTSENQFSLNLSSVTAADTAVYYCARELERPYYYGMDVWGQGTTVTVSS VL: DIQMTQSPSSLSASVGDRVTITCQASQDISNYLNWYQQKPGKAPKLLIYNASTLETGVPSRFSGSGSGTDFTFTISSLQPEDIATYYCQQYDNLPLTFGGGTKVEFK	240000
